assay: total protein half-life in vivo (active degradation + dilution); higher = more stable protein; conditions: wild type E. coli NCM3722; growth: P-lim chemostat; doubling time 12 h
What total protein half-life in vivo was measured for each of the following?

Task: Supply measured total protein half-life in vivo of MIEADRLISAGTTLPEDVADRAIRPKLLEEYVGQPQVRSQMEIFIKAAKLRGDALDHLLIFGPPGLGKTTLANIVANEMGVNLRTTSGPVLEKAGDLAAMLTNLEPHDVLFIDEIHRLSPVVEEVLYPAMEDYQLDIMIGEGPAARSIKIDLPPFTLIGATTRAGSLTSPLRDRFGIVQRLEFYQVPDLQYIVSRSARFMGLEMSDDGALEVARRARGTPRIANRLLRRVRDFAEVKHDGTISADIAAQALDMLNVDAEGFDYMDRKLLLAVIDKFFGGPVGLDNLAAAIGEERETIEDVLEPYLIQQGFLQRTPRGRMATTRAWNHFGITPPEMP [P0A812] in your reply.
Output: 4.66 h

Task: Supply measured total protein half-life in vivo of MTDKMQSLALAPVGNLDSYIRAANAWPMLSADEERALAEKLHYHGDLEAAKTLILSHLRFVVHIARNYAGYGLPQADLIQEGNIGLMKAVRRFNPEVGVRLVSFAVHWIKAEIHEYVLRNWRIVKVATTKAQRKLFFNLRKTKQRLGWFNQDEVEMVARELGVTSKDVREMESRMAAQDMTFDLSSDDDSDSQPMAPVLYLQDKSSNFADGIEDDNWEEQAANRLTDAMQGLDERSQDIIRARWLDEDNKSTLQELADRYGVSAERVRQLEKNAMKKLRAAIEA [P0AGB3] in your reply.
Output: 0.858 h

Task: Supply measured total protein half-life in vivo of `MIKKIFALPVIEQISPVLSRRKLDELDLIVVDHPQVKASFALQGAHLLSWKPAGEEEVLWLSNNTPFKNGVAIRGGVPVCWPWFGPAAQQGLPAHGFARNLPWTLKSHHEDADGVALTFELTQSEETKKFWPHDFTLLAHFRVGKTCEIDLESHGEFETTSALHTYFNVGDIAKVSVSGLGDRFIDKVNDAKENVLTDGIQTFPDRTDRVYLNPQDCSVINDEALNRIIAVGHQHHLNVVGWNPGPALSISMGDMPDDGYKTFVCVETAYASETQKVTKEKPAHLAQSIRVAKR` in your reply.
Output: 12.9 h

Task: Supply measured total protein half-life in vivo of MAMHLNENLDDNGEMHDINVTPFIDVMLVLLIIFMVAAPLATVDVKVNLPASTSTPQPRPEKPVYLSVKADNSMFIGNDPVTDETMITALNALTEGKKDTTIFFRADKTVDYETLMKVMDTLHQAGYLKIGLVGEETAKAK [P0ABV2] in your reply.
Output: 2.15 h

src = the supplement of paper PMC11246515
